Tested on: Streptococcus pneumoniae
Assay: Antibacterial activity against erythromycin-resistant Streptococcus pneumoniae A22072 by standard dilution assay
Format: functional
Reported MIC values follow for various molecules
measured_parameter: MIC

{"molecule": "CCCCCNC(=O)O[C@H]1[C@H](C)[C@@H](O[C@@H]2O[C@H](C)C[C@H](N(C)C)[C@H]2O)[C@](C)(O)C[C@@H](C)CN(C)[C@H](C)[C@H]2OC(=O)O[C@]2(C)[C@@H](CC)OC(=O)[C@@H]1C", "measured_value": "64 µg/mL"}
{"molecule": "CC[C@H]1OC(=O)[C@H](C)[C@@H](O)[C@H](C)[C@@H](O[C@@H]2O[C@H](C)C[C@H](N(C)C)[C@H]2OC(C)=O)[C@](C)(O)C[C@@H](C)CN(C)[C@H](C)[C@@H](O)[C@]1(C)O", "measured_value": "128 µg/mL"}
{"molecule": "CC[C@H]1OC(=O)[C@H](C)[C@@H](O[C@H]2C[C@@](C)(OC)[C@@H](O)[C@H](C)O2)[C@H](C)[C@@H](O[C@@H]2O[C@H](C)C[C@H](N(C)C)[C@H]2O)[C@](C)(O)C[C@@H](C)CN(C)[C@H](C)[C@@H](O)[C@]1(C)O [AZITHROMYCIN]", "measured_value": "4 µg/mL"}

###

Test system: Streptococcus pneumoniae
Assay: Antibacterial activity against erythromycin-resistant Streptococcus pneumoniae A22072 by standard dilution assay
Format: functional
// assign Fulfilled if MIC falls strictly below 100 µg/mL, else Not fulfilled (ties count as Not fulfilled)

{"sample_smiles": "CC[C@H]1OC(=O)[C@H](C)[C@@H](OC(=O)NCc2ccc(F)cc2)[C@H](C)[C@@H](O[C@@H]2O[C@H](C)C[C@H](N(C)C)[C@H]2O)[C@](C)(O)C[C@@H](C)CN(C)[C@H](C)[C@H]2OC(=O)O[C@@]21C", "category": "Fulfilled"}
{"sample_smiles": "CC[C@H]1OC(=O)[C@H](C)[C@@H](OC(=O)NCc2ccc(OC)cc2)[C@H](C)[C@@H](O[C@@H]2O[C@H](C)C[C@H](N(C)C)[C@H]2O)[C@](C)(O)C[C@@H](C)CN(C)[C@H](C)[C@H]2OC(=O)O[C@@]21C", "category": "Not fulfilled"}
{"sample_smiles": "CC[C@H]1OC(=O)[C@H](C)[C@@H](OC(=O)NCc2ccccc2)[C@H](C)[C@@H](O[C@@H]2O[C@H](C)C[C@H](N(C)C)[C@H]2O)[C@](C)(O)C[C@@H](C)CN(C)[C@H](C)[C@H]2OC(=O)O[C@@]21C", "category": "Not fulfilled"}
{"sample_smiles": "CC[C@H]1OC(=O)[C@H](C)[C@@H](OC(=O)NCCc2ccccc2)[C@H](C)[C@@H](O[C@@H]2O[C@H](C)C[C@H](N(C)C)[C@H]2O)[C@](C)(O)C[C@@H](C)CN(C)[C@H](C)[C@H]2OC(=O)O[C@@]21C", "category": "Fulfilled"}
{"sample_smiles": "CCCCNC(=O)O[C@H]1[C@H](C)[C@@H](O[C@@H]2O[C@H](C)C[C@H](N(C)C)[C@H]2O)[C@](C)(O)C[C@@H](C)CN(C)[C@H](C)[C@H]2OC(=O)O[C@]2(C)[C@@H](CC)OC(=O)[C@@H]1C", "category": "Not fulfilled"}
{"sample_smiles": "CC[C@H]1OC(=O)[C@H](C)[C@@H](O)[C@H](C)[C@@H](O[C@@H]2O[C@H](C)C[C@H](N(C)C)[C@H]2OC(C)=O)[C@@](C)(OC)C[C@@H](C)C(=O)[C@H](C)[C@@H](O)[C@]1(C)O", "category": "Not fulfilled"}
{"sample_smiles": "CC[C@H]1OC(=O)[C@H](C)[C@@H](O[C@H]2C[C@@](C)(OC)[C@@H](O)[C@H](C)O2)[C@H](C)[C@@H](O[C@@H]2O[C@H](C)C[C@H](N(C)C)[C@H]2O)[C@](C)(OC)C[C@@H](C)C(=O)[C@H](C)[C@@H](O)[C@]1(C)O", "category": "Fulfilled"}
{"sample_smiles": "CC[C@H]1OC(=O)[C@H](C)[C@@H](OC(=O)NCCc2ccccc2Cl)[C@H](C)[C@@H](O[C@@H]2O[C@H](C)C[C@H](N(C)C)[C@H]2O)[C@](C)(O)C[C@@H](C)CN(C)[C@H](C)[C@H]2OC(=O)O[C@@]21C", "category": "Fulfilled"}
